test system: HepG2 human hepatocarcinome cell-line; test: MTT cytotoxicity on HepG2 cells; conditions: HepG2, 72 h
In this section, each of the molecules is paired with its reported IC50.

| MOLECULE | TESTED ON | IC50, µg/mL |
| --- | --- | --- |
| COC(=O)c1c(O)cc2c(c1C)CC[C@H]1C(C)(C)CCC[C@]21C [Compound 18] | HepG2 human hepatocarcinome cell-line | 13.6 |
| CC1(C)CCC[C@]2(C)c3cc(O)c(C=O)cc3CC[C@@H]12 [Compound 23] | HepG2 human hepatocarcinome cell-line | 8.36 |
| Cc1c2c(cc3occc13)[C@@]1(C)CCCC(C)(C)[C@@H]1CC2 [Compound 7, (5a)-vouacapane-8(14),9(11)-diene] | HepG2 human hepatocarcinome cell-line | 14 |
| CC1(C)CCC[C@]2(C)c3cc4c(cc3CC[C@@H]12)CC(=O)O4 [Compound 25] | HepG2 human hepatocarcinome cell-line | 78 |
| COC(=O)C1=C(C(=O)OC)C2(C)CC[C@H]3C(C)(C)CCC[C@]3(C)C2=CC1=O (some centres unmarked) [Compound 16] | HepG2 human hepatocarcinome cell-line | 26.7 |
| Cc1c(CO)c(O)cc2c1CC[C@H]1C(C)(C)CCC[C@]21C [Compound 19] | HepG2 human hepatocarcinome cell-line | 12.2 |
| COC(=O)C1=C(C(=O)OC)C2(C)CC[C@H]3C(C)(C)CCC[C@]3(C)C2=CC1 (some centres unmarked) [Compound 15] | HepG2 human hepatocarcinome cell-line | 58.3 |
| COC(=O)c1c(O)cc2c(c1C(=O)OC)CC[C@H]1C(C)(C)CCC[C@]21C [Compound 17] | HepG2 human hepatocarcinome cell-line | 8.15 |
| CC1(C)CCC[C@]2(C)c3cc(O)c(CO)cc3CC[C@@H]12 [Compound 24] | HepG2 human hepatocarcinome cell-line | 24.2 |
| Cc1c(C=O)c(O)cc2c1CC[C@H]1C(C)(C)CCC[C@]21C [Compound 20] | HepG2 human hepatocarcinome cell-line | 8.41 |
| COC(=O)c1ccc2c(c1C(=O)OC)CC[C@H]1C(C)(C)CCC[C@]21C [Compound 14] | HepG2 human hepatocarcinome cell-line | 33.8 |
